- System: PC-3 prostate
- assay_text: NCI tumour cell line growth inhibition, 48 h
experimental_readout: TGI

As a guide, the following entries are already answered.
Q: Which value of TGI has been reported for C=C(C)C1CC[C@@](C)(O)[C@H](C#N)C1 (stereo not given in full) in the records?
A: > 100 µM

Q: Which value of TGI has been reported for NC(=O)c1c(NC(=O)c2cccs2)sc2c1CCC(=O)C2 in the records?
A: > 100 µM

Q: Which value of TGI has been reported for CNC(=O)ON(C(C)=O)C(=O)NC in the records?
A: 60.7 µM

Q: Which value of TGI has been reported for COC(=O)C1C(C(=O)O)C2(c3ccccc3)C(=O)C1(c1ccccc1)C(c1ccccc1)=C2c1ccccc1 (stereo not given) in the records?
A: 32.5 µM

Q: Which value of TGI has been reported for CCCCN=NNc1cn(C2OC(CO)C(O)C2O)c(=O)[nH]c1=O (stereo not given) in the records?
A: > 100 µM

Others:
Q: Which value of TGI has been reported for CC1(C)OCC(CO)(CO)CO1 in the records?
A: > 100 µM

Q: Which value of TGI has been reported for CCc1nc(C)cn1C(=O)OCc1nc2nc(Cl)nc(N3CCOCC3)c2[nH]1 in the records?
A: 3.01 µM

These entries and their values trace back to PubChem BioAssay (NCI).
